Each recorded value in this set is attributed to the supplement of paper PMC7877785.

- test_description: self-splicing fitness, log relative to wild type (ln ratio); higher = more splicing; Tetrahymena group I intron in knt gene, E. coli kanamycin selection, DiMSum; sequences stand for … in CUCUCU…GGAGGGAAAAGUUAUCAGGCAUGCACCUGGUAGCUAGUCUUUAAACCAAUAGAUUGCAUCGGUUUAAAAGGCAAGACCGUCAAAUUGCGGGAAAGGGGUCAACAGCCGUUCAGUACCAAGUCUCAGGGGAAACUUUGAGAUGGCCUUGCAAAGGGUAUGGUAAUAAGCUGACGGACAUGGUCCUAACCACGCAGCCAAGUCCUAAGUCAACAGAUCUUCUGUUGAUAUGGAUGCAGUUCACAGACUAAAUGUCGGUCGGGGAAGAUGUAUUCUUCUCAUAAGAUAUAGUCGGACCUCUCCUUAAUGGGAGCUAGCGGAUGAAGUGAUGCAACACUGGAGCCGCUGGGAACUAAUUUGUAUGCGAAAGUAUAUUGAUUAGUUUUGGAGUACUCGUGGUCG;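 also: selection with 25 µg/mL kanamycin versus none on LB agar overnight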
- study_conditions: 37 °C
Measured self-splicing fitness (ln) of individual entries

| monomer_sequence | self-splicing fitness (ln) |
| --- | --- |
| GCACAGCAAUAUUACGCCGA | -1.61 |
| CCUUAGCAAUAUUACGUUCC | -2.51 |
| GGUUAGCAAUAUUACGAUGU | -0.087 |

====

- test_description: self-splicing fitness, log relative to wild type (ln ratio); higher = more splicing; Tetrahymena group I intron in knt gene, E. coli kanamycin selection, DiMSum; sequences stand for … in CUCUCU…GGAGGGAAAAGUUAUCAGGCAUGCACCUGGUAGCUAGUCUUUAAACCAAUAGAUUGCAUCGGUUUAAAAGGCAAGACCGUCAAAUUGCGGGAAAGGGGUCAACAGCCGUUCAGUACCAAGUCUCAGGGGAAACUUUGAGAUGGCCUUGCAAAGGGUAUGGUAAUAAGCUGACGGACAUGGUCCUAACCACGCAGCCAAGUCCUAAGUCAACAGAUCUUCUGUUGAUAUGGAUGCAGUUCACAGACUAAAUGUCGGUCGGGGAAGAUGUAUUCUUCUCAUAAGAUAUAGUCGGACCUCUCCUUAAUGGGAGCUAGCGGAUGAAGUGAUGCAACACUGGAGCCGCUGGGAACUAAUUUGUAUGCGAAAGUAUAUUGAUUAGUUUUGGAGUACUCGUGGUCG
- study_conditions: 37 °C
Would you mind labelling by self-splicing fitness (ln)? At or over -2 is TRUE, under is FALSE.

| monomer_sequence | group_label |
| --- | --- |
| CCUUAGCAAUAUUACGUUCA | FALSE |
| GUGAAGCAAUAUUACGUUUC | FALSE |
| UCGCAGCAAUAUUACGACCG | TRUE |
| UUCCAGCAAUAUUACGUGCU | FALSE |
| ACUAAGCAAUAUUACGCCCC | TRUE |
| UAGCAGCAAUAUUACGGGUA | TRUE |
| AAUCAGCAAUAUUACGACGU | TRUE |
| GGACAGCAAUAUUACGGAUA | TRUE |
| CCGAAGCAAUAUUACGUCUC | FALSE |
| CAGAAGCAAUAUUACGGGGA | TRUE |
| UUUUAGCAAUAUUACGUUGA | TRUE |
| GAGGAGCAAUAUUACGUUUG | TRUE |
| UUCAAGCAAUAUUACGAGCG | TRUE |
